I'd appreciate it if you could supply Plat values for the items below.
- Species on record: Rattus norvegicus
- Procedure Details: Open TG-GATES - Regimen: Daily Repeat
- Assay type: toxicity, organism-based, Sprague-Dawley
- Set-up: regimen Daily Repeat, gender Male, age 6 weeks
- Condition Parameters: in vivo, po, 0 mg/kg, […], tissue Blood, route gavage, dose level Control, time 14 day
Give bare numbers, in x10_4/uL.

Illustrative cases are given below, each with its answer.
COc1ccc(O)c(C(C)(C)C)c1.COc1ccc(O)cc1C(C)(C)C [BUTYLATED HYDROXYANISOLE] ... 143.4
CS(=O)(=O)Nc1ccc([N+](=O)[O-])cc1Oc1ccccc1 [NIMESULIDE] ... 118.2
Cn1cnc([N+](=O)[O-])c1Sc1ncnc2nc[nH]c12 ... 103.8
C=CCO ... 126.7
O=C1NC(=O)C(c2ccccc2)(c2ccccc2)N1 ... 124.2
Cc1cnc(NC(=O)C2=C(O)c3ccccc3S(=O)(=O)N2C)s1 ... 111.1

Consider the following items and state reported Plat for each.
1. COc1ccc(Cl)cc1C(=O)NCCc1ccc(S(=O)(=O)NC(=O)NC2CCCCC2)cc1 [GLYBURIDE]
2. Cn1c(=O)c2c(ncn2C)n(C)c1=O
3. O=C1CN(/N=C/c2ccc(-c3ccc([N+](=O)[O-])cc3)o2)C(O)=N1
4. Cc1cccc(Nc2cc(Cl)nc(SCC(=O)O)n2)c1C

OUTPUT:
[122.3, 117.4, 112.9, 119.6]

INPUT: Which Plat value belongs to O=P1(N(CCCl)CCCl)NCCCO1 (stereo unspecified) [CYCLOPHOSPHAMIDE ANHYDROUS] ?
OUTPUT: 118.8

###

- Species on record: Rattus norvegicus
- Procedure Details: Open TG-GATES - Regimen: Single
- Format: toxicity, organism-based, Sprague-Dawley
- Parameters: regimen Single, gender Male, age 6 weeks
- Condition Parameters: in vivo, po, 0 mg/kg, 9 h, tissue Plasma, route gavage, dose level Control
Criterion: LDH strictly less than 100 IU/L. Met: label 1. Not met: label 0.

C=CCO [ALLYL ALCOHOL] ... label 0
O=C1NC(=O)C(c2ccccc2)(c2ccccc2)N1 [PHENYTOIN] ... label 1
S=C=Nc1cccc2ccccc12 [1-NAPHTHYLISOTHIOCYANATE] ... label 0
Cc1cccc(Nc2cc(Cl)nc(SCC(=O)O)n2)c1C [PIRINIXIC ACID] ... label 1
COc1ccc(O)c(C(C)(C)C)c1.COc1ccc(O)cc1C(C)(C)C [BUTYLATED HYDROXYANISOLE] ... label 1

INPUT: Is 100 IU/L strictly greater than the molecule's reported LDH? molecule: Cc1cnc(NC(=O)C2=C(O)c3ccccc3S(=O)(=O)N2C)s1 [MELOXICAM]
OUTPUT: label 0

INPUT: Report whether reported LDH is lower than 100 IU/L (strictly) for Cn1cnc([N+](=O)[O-])c1Sc1ncnc2nc[nH]c12 [AZATHIOPRINE]
OUTPUT: label 0

INPUT: Here's an entry: COc1ccc(Cl)cc1C(=O)NCCc1ccc(S(=O)(=O)NC(=O)NC2CCCCC2)cc1 [GLYBURIDE] . Is its LDH below 100 IU/L?
OUTPUT: label 0

INPUT: is_below(LDH, 100 IU/L) for O=C1CN(/N=C/c2ccc(-c3ccc([N+](=O)[O-])cc3)o2)C(O)=N1 [DANTROLENE] ?
OUTPUT: label 1

INPUT: Answer whether the molecule CS(=O)(=O)Nc1ccc([N+](=O)[O-])cc1Oc1ccccc1 [NIMESULIDE] has LDH strictly less than 100 IU/L
OUTPUT: label 1

###

- Organism: Rattus norvegicus
- Procedure Details: Open TG-GATES - Regimen: Daily Repeat
- Format: toxicity, organism-based, Sprague-Dawley
- Parameters: regimen Daily Repeat, gender Male, age 6 weeks
- Condition Parameters: in vivo, po, 0 mg/kg, 72 h, tissue Plasma, route gavage, dose level Control, time 3 day
What GLC was measured for each of the following?
Give bare numbers, in mg/dL.

Below, 4 compounds whose answers are already recorded.
Cn1c(=O)c2c(ncn2C)n(C)c1=O [CAFFEINE] ... 187.2
O=C1NC(=O)C(c2ccccc2)(c2ccccc2)N1 [PHENYTOIN] ... 192.6
O=P1(N(CCCl)CCCl)NCCCO1 (stereo not given) [CYCLOPHOSPHAMIDE ANHYDROUS] ... 182.6
Cc1cccc(Nc2cc(Cl)nc(SCC(=O)O)n2)c1C [PIRINIXIC ACID] ... 201.2

Please examine the following record next.
INPUT: Which GLC value is on record for COc1ccc(O)c(C(C)(C)C)c1.COc1ccc(O)cc1C(C)(C)C [BUTYLATED HYDROXYANISOLE] ?
OUTPUT: 178.4

###

- Organism: Rattus norvegicus
- Procedure Details: Open TG-GATES - Regimen: Daily Repeat
- Format: toxicity, organism-based, Sprague-Dawley
- Parameters: regimen Daily Repeat, gender Male, age 6 weeks
- Condition Parameters: in vivo, po, 0 mg/kg, 72 h, tissue Blood, route gavage, dose level Control, time 3 day
Property Label: Plat (x10_4/uL)
Give bare numbers, in x10_4/uL.

CS(=O)(=O)Nc1ccc([N+](=O)[O-])cc1Oc1ccccc1 [NIMESULIDE] ... 127.5
COc1ccc(O)c(C(C)(C)C)c1.COc1ccc(O)cc1C(C)(C)C [BUTYLATED HYDROXYANISOLE] ... 140.6
Cc1cnc(NC(=O)C2=C(O)c3ccccc3S(=O)(=O)N2C)s1 ... 120
C=CCO ... 133.7
Cn1cnc([N+](=O)[O-])c1Sc1ncnc2nc[nH]c12 ... 129.4

Can you give me Plat for all of these, one by one?
1. O=C1NC(=O)C(c2ccccc2)(c2ccccc2)N1
2. Cn1c(=O)c2c(ncn2C)n(C)c1=O
3. COc1ccc(Cl)cc1C(=O)NCCc1ccc(S(=O)(=O)NC(=O)NC2CCCCC2)cc1 [GLYBURIDE]
4. O=C1CN(/N=C/c2ccc(-c3ccc([N+](=O)[O-])cc3)o2)C(O)=N1
5. O=P1(N(CCCl)CCCl)NCCCO1 (stereo unspecified) [CYCLOPHOSPHAMIDE ANHYDROUS]
6. Cc1cccc(Nc2cc(Cl)nc(SCC(=O)O)n2)c1C

OUTPUT:
126.3
113.5
124.6
128.8
112
109.1

###

Provide the recorded ALT for the entries that follow.
- Species on record: Rattus norvegicus
- Procedure Details: Open TG-GATES - Regimen: Daily Repeat
- Assay type: toxicity, organism-based, Sprague-Dawley
- Set-up: regimen Daily Repeat, gender Male, age 6 weeks
- Condition Parameters: in vivo, po, 0 mg/kg, […], tissue Plasma, route gavage, dose level Control, time 14 day
Give bare numbers, in IU/L.

O=P1(N(CCCl)CCCl)NCCCO1 (stereo unspecified) [CYCLOPHOSPHAMIDE ANHYDROUS] ... 37.8
Cc1cnc(NC(=O)C2=C(O)c3ccccc3S(=O)(=O)N2C)s1 [MELOXICAM] ... 36.6
O=C1CN(/N=C/c2ccc(-c3ccc([N+](=O)[O-])cc3)o2)C(O)=N1 [DANTROLENE] ... 31.4
CS(=O)(=O)Nc1ccc([N+](=O)[O-])cc1Oc1ccccc1 [NIMESULIDE] ... 28.4
C=CCO [ALLYL ALCOHOL] ... 34.2
O=C1NC(=O)C(c2ccccc2)(c2ccccc2)N1 [PHENYTOIN] ... 40
Cc1cccc(Nc2cc(Cl)nc(SCC(=O)O)n2)c1C [PIRINIXIC ACID] ... 41.2
COc1ccc(O)c(C(C)(C)C)c1.COc1ccc(O)cc1C(C)(C)C [BUTYLATED HYDROXYANISOLE] ... 32

Each molecule below has a reported value. Please supply its ALT.
1. Cn1c(=O)c2c(ncn2C)n(C)c1=O [CAFFEINE]
2. COc1ccc(Cl)cc1C(=O)NCCc1ccc(S(=O)(=O)NC(=O)NC2CCCCC2)cc1 [GLYBURIDE]

OUTPUT:
40.8
36.2

INPUT: Find the recorded ALT belonging to Cn1cnc([N+](=O)[O-])c1Sc1ncnc2nc[nH]c12 [AZATHIOPRINE] and report it.
OUTPUT: 35.6

###

Answer each item with its documented IP.
- Organism: Rattus norvegicus
- Procedure Details: Open TG-GATES - Regimen: Single
- Type: toxicity, organism-based, Sprague-Dawley
- Parameters: regimen Single, gender Male, age 6 weeks
- Condition Parameters: in vivo, po, 0 mg/kg, 3 h, tissue Plasma, route gavage, dose level Control
Numbers only, in mg/dL.

The examples below pair each entry with its known result.
Cc1cccc(Nc2cc(Cl)nc(SCC(=O)O)n2)c1C ... 10.5
Cc1cnc(NC(=O)C2=C(O)c3ccccc3S(=O)(=O)N2C)s1 ... 9.3
CNCCC(Oc1ccc(C(F)(F)F)cc1)c1ccccc1.Cl (stereo not given) [FLUOXETINE HYDROCHLORIDE] ... 10.1
CS(=O)(=O)Nc1ccc([N+](=O)[O-])cc1Oc1ccccc1 [NIMESULIDE] ... 9.6

Now consider the entry below.
INPUT: Request the reported IP associated with COc1ccc(Cl)cc1C(=O)NCCc1ccc(S(=O)(=O)NC(=O)NC2CCCCC2)cc1 [GLYBURIDE]
OUTPUT: 8.8
